Biological target: b-Raf (V600E) (Homo sapiens (Human), UniProt P15056, V600E)
Sequence (P15056 whole entry V600E): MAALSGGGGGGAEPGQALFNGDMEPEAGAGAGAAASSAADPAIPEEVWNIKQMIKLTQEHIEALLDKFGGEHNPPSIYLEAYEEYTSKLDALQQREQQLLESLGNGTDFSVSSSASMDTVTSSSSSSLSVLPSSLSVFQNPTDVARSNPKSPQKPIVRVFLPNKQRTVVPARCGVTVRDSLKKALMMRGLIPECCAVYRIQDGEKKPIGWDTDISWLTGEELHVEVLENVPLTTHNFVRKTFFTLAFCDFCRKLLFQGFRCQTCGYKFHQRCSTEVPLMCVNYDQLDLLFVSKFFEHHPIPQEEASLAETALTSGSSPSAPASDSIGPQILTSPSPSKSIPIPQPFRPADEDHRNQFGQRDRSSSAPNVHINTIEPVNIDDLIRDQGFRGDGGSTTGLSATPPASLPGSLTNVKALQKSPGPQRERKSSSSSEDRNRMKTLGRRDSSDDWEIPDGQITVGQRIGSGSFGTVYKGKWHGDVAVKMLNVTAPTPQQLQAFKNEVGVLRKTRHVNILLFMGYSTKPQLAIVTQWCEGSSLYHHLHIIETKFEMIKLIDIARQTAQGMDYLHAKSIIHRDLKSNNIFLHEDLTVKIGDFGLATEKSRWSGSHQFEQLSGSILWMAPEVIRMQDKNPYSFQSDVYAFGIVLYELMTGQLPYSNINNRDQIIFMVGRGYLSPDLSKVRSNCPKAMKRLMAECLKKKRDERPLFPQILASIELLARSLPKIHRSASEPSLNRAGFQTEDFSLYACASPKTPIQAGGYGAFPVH
Details: read-out: b-Raf IC-50; AlphaScreen, 60 min pre-incubation, reaction 3 hours at room temperature
assay endpoint: IC50 (nM)

a: Cc1ncc(NC(=O)c2cnnc(C(C)(C)C#N)c2)cc1-c1cnc(OCC(F)F)c(N2CCOCC2)c1
b: Cc1ncc(NC(=O)c2ccnc(C(C)(C)F)c2)cc1-c1cnc(OC(C)C)c(N2CCOCC2)c1
c: Cc1ncc(NC(=O)c2cccc(C(F)(F)F)c2)cc1-c1nc2c(c(N3CCOCC3)n1)CS(=O)(=O)C2
d: Cc1ncc(NC(=O)c2cccc(C(F)(F)F)c2)cc1-c1ccnc(N2CCOCC2=O)c1
Prompt line: Please put the 4 compounds above in a list ordered by falling IC50. Kindly provide the labels arranged according to the requested ordering.
Response line: d, a, c, b

I: Cc1ncc(NC(=O)c2ccnc(C(C)(C)O)c2)cc1-c1cnc(OC2CCOCC2)c(N2CCOCC2)c1
II: Cc1ncc(NC(=O)c2ccnc(C(F)(F)F)c2)cc1-c1cc(N2CCOCC2)nc(N2CC(C)(O)C2)c1
Prompt line: Field: lower IC50 | Options: I / II Answer format: the label of the selected item.
Response line: II

A: Cc1ccc(NC(=O)c2ccnc(C(C)C)c2)cc1-c1cc(N2CCOCC2)nc(N2CC(O)C2)c1
B: COc1nnc(-c2cc(C(=O)Nc3ccnc(C(F)(F)F)c3)ccc2C)cc1N1CCOCC1 [Example 1018]
C: Cc1ccc(NC(=O)c2ccnc(S(C)(=O)=O)c2)cc1-c1cc(N2CCOCC2)c2nccn2c1
Prompt line: Please list the entries, largest IC50 first. Kindly provide the labels arranged according to the requested ordering.
Response line: A, B, C
(A: 2.64 nM, B: 1.76 nM, C: 0.9 nM)
